# System: LNCaP tumor xenograft-bearing CB17-SCID mice
# assay.procedure: Biodistribution in LNCaP tumor xenograft-bearing CB17-SCID mice
# assay.context: 24 h p.i.
compounds and their reported Biodistribution Heart
Expressed in % ID/g, but write only the number.

CC(C)(C)[Si](F)(c1ccc(C(=O)NC[C@@H](NC(=O)CN2CCN(CC(=O)[O-])CCN(CC(=O)[O-])CCN(CC(=O)[O-])CC2)C(=O)N[C@H](CCCCNC(=O)CCC(=O)NCCC[C@@H](NC(=O)CC[C@H](NC(=O)O[C@@H](CCC(=O)O)C(=O)O)C(=O)O)C(=O)O)C(=O)O)cc1)C(C)(C)C.[177Lu+3] [[^177Lu]Lu-3, [^177Lu]Lu-Carbamate I]; 0.02

Next compound, Biodistribution Heart to be filled in.
Q: // Input: CCCCCC[C@H](NC(=O)CC[C@H](NC(=O)N[C@@H](CCC(=O)N[C@H](CCCNC(=O)CCC(=O)NCCCC[C@@H](NC(=O)[C@@H](CNC(=O)c1ccc([Si](F)(C(C)(C)C)C(C)(C)C)cc1)NC(=O)CN1CCN(CC(=O)[O-])CCN(CC(=O)[O-])CCN(CC(=O)[O-])CC1)C(=O)O)C(=O)O)C(=O)O)C(=O)O)C(=O)O.[177Lu+3] [[^177Lu]Lu-6, [^177Lu]Lu-Proinhibitor II] . Output its Biodistribution Heart only.
Ans: 0.03

* * *

# Test system: LNCaP tumor xenograft-bearing CB17-SCID mice
# assay.procedure: Biodistribution in LNCaP tumor xenograft-bearing CB17-SCID mice
# assay.context: 24 h p.i.
Quick reference for Biodistribution Heart among some compounds
Numeric answer plus unit only.

Example cases with answers are listed next.
CSCC[C@H](NC(=O)CC[C@H](NC(=O)N[C@@H](CCC(=O)N[C@H](CCCNC(=O)CCC(=O)NCCCC[C@@H](NC(=O)[C@@H](CNC(=O)c1ccc([Si](F)(C(C)(C)C)C(C)(C)C)cc1)NC(=O)CN1CCN(CC(=O)[O-])CCN(CC(=O)[O-])CCN(CC(=O)[O-])CC1)C(=O)O)C(=O)O)C(=O)O)C(=O)O)C(=O)O.[177Lu+3] [[^177Lu]Lu-5, [^177Lu]Lu-Proinhibitor I]; 0.01 ± 0.00 % ID/g
CC(C)(C)[Si](F)(c1ccc(C(=O)NCC(NC(=O)CN2CCN(CC(=O)[O-])CCN(CC(=O)[O-])CCN(CC(=O)[O-])CC2)C(=O)NC(CCCCNC(=O)CCC(=O)NCCCC(NC(=O)CCC(NC(=O)NC(CCc2nnn[nH]2)C(=O)O)C(=O)O)C(=O)O)C(=O)O)cc1)C(C)(C)C.[177Lu+3] (stereo not drawn) [[^177Lu]Lu-11, [^177Lu]Lu-Tetrazole Derivative 11]; 0.02 ± 0.00 % ID/g

From here, focus on the item given below.
Q: Output measured Biodistribution Heart for this item: CCCCCC[C@H](NC(=O)[C@H](CCC(=O)O)NC(=O)N[C@@H](CCC(=O)N[C@H](CCCNC(=O)CCC(=O)NCCCC[C@@H](NC(=O)[C@@H](CNC(=O)c1ccc([Si](F)(C(C)(C)C)C(C)(C)C)cc1)NC(=O)CN1CCN(CC(=O)[O-])CCN(CC(=O)[O-])CCN(CC(=O)[O-])CC1)C(=O)O)C(=O)O)C(=O)O)C(=O)O.[177Lu+3] [[^177Lu]Lu-7, [^177Lu]Lu-Proinhibitor III]
Ans: 0.03 ± 0.01 % ID/g
